- assay-conditions: 283.15 K; Liquid; Closed cell (Static) method
Items are presented alongside their recorded vapor or sublimation pressure.
quantity-kind: vapor or sublimation pressure (kPa)

>>> df
                                  compound                  quantity_kind  experimental_result
0           CCN1CCOCC1 [4-ethylmorpholine]  vapor or sublimation pressure               0.5816
1  CN(C)CCO [2-(N,N-dimethylamino)ethanol]  vapor or sublimation pressure               0.2979
2                                O [water]  vapor or sublimation pressure                1.183
3  CC(C)N(C)C [N,N-dimethylisopropylamine]  vapor or sublimation pressure                11.11

---

The reader will find reported vapor or sublimation pressure values listed item by item below.
- assay-conditions: 333.15 K; Liquid; Closed cell (Static) method
Numbers after ± are expanded uncertainties.
quantity-kind: vapor or sublimation pressure

In [3]: df
Out[3]:
   input_smiles                  quantity_kind  experimental_result
0             O  vapor or sublimation pressure      19.82 ± 0.4 kPa
1      CN(C)CCO  vapor or sublimation pressure     5.705 ± 0.12 kPa
2    CCN1CCOCC1  vapor or sublimation pressure     8.353 ± 0.17 kPa
3    CC(C)N(C)C  vapor or sublimation pressure      82.89 ± 1.7 kPa

---

- assay-conditions: 323.15 K; Liquid; Closed cell (Static) method
quantity-kind: vapor or sublimation pressure (kPa)

>>> df
   input_smiles  readout_unit  experimental_result
0             O           kPa                12.23
1    CC(C)N(C)C           kPa                 58.9
2    CCN1CCOCC1           kPa                5.304
3      CN(C)CCO           kPa                3.435

---

- assay-conditions: 293.15 K; Liquid; Closed cell (Static) method
# maps each entry to its vapor or sublimation pressure
quantity-kind: vapor or sublimation pressure (kPa)

In [3]: df
Out[3]:
   input_smiles  experimental_result
0    CCN1CCOCC1                1.083
1             O                2.277
2    CC(C)N(C)C                17.77
3      CN(C)CCO                 0.59

---

- assay-conditions: 313.15 K; Liquid; Closed cell (Static) method
Below: a set of entries, each annotated with reported vapor or sublimation pressure.
quantity-kind: vapor or sublimation pressure (kPa)

>>> print(df.to_string())
                                  compound  readout_unit  experimental_result
0                                O [water]           kPa                7.284
1  CC(C)N(C)C [N,N-dimethylisopropylamine]           kPa                40.76
2  CN(C)CCO [2-(N,N-dimethylamino)ethanol]           kPa                1.993
3           CCN1CCOCC1 [4-ethylmorpholine]           kPa                3.253
